Would you kindly list viability at 120 h, 1 µM for each of these compounds?
assay: Cytotoxicity against mouse ScN2a cells assessed as cell viability at 1 uM after 5 days by MTT assay relative to control; format: cell-based; settings: read-out: Activity
Please make sure the unit comes right after the number.

For the compound shown here, `COc1ccc2c(C)cc(N/N=C/c3ccnc4ccccc34)nc2c1` , give the reported viability at 120 h, 1 µM.
84.8%

For the compound shown here, C1=CC2=NC(N/N=C/c3ccc4ccccc4n3)=C3CC=CN3C2C=C1 (centres undefined) , give the reported viability at 120 h, 1 µM.
94.8%

For the compound shown here, `C(=C\c1ccco1)/NNc1nc2ccccc2n2cccc12` , give the reported viability at 120 h, 1 µM.
88.5%

For the compound shown here, FC1=CC2=NC(N/N=C/c3ccnc4ccccc34)=C3NC=CN3C2C=C1 (centres undefined) , give the reported viability at 120 h, 1 µM.
92.6%

---

assay: Cytotoxicity against mouse ScN2a cells assessed as cell viability at 1 uM after 5 days by MTT assay relative to control; assay type: cell-based; details: read-out: Activity
Would you kindly list viability at 120 h, 1 µM for each of these molecules?
Express the result in % but write the number alone.

For the molecule shown here, C1=CC2=NC(N/N=C/c3ccnc4ccccc34)=C3NC=CN3C2C=C1 (stereo not given) , give the reported viability at 120 h, 1 µM.
98.5

For the molecule shown here, COC(=O)C1=CC2=NC(N/N=C/c3ccnc4ccccc34)=C3CC=CN3C2C=C1 (stereo not given) , give the reported viability at 120 h, 1 µM.
89.3

For the molecule shown here, C1=CC2=NC(N/N=C/c3ccnc4ccccc34)=C3CC=CN3C2C=C1 (stereo not given) , give the reported viability at 120 h, 1 µM.
88.3

For the molecule shown here, CC1=CC2=NC(N/N=C/c3ccnc4ccccc34)=C3CC=CN3C2C=C1C (stereo not given) , give the reported viability at 120 h, 1 µM.
98.6

For the molecule shown here, `CN(CCCCNc1c2c(nc3ccccc13)CCCC2)CCCNc1c2c(nc3ccccc13)CCCC2` , give the reported viability at 120 h, 1 µM.
76.9

---

assay: Cytotoxicity against mouse ScN2a cells assessed as cell viability at 0.1 uM after 5 days by MTT assay relative to control; assay type: cell-based; conditions: read-out: Activity
READOUT_TYPE: viability at 120 h, 0.1 µM (%)
Express the result in % but write the number alone.

For the compound shown here, `COc1ccc2c(C)cc(N/N=C/c3ccnc4ccccc34)nc2c1` , give the reported viability at 120 h, 0.1 µM.
93.9

For the compound shown here, FC1=CC2=NC(N/N=C/c3ccnc4ccccc34)=C3NC=CN3C2C=C1 (configuration not stated) , give the reported viability at 120 h, 0.1 µM.
87.7

For the compound shown here, `C(=C\c1ccco1)/NNc1nc2ccccc2n2cccc12` , give the reported viability at 120 h, 0.1 µM.
96.8

For the compound shown here, `C(=C\c1cccs1)/NNc1nc2ccccc2n2cccc12` , give the reported viability at 120 h, 0.1 µM.
78.9

For the compound shown here, C1=CC2=NC(N/N=C/c3ccnc4ccccc34)=C3NC=CN3C2C=C1 (configuration not stated) , give the reported viability at 120 h, 0.1 µM.
94.4

For the compound shown here, COC1=CC2=NC(N/N=C/c3ccnc4ccccc34)=C3CC=CN3C2C=C1 (configuration not stated) , give the reported viability at 120 h, 0.1 µM.
107

For the compound shown here, C1=CC2C(=NC(N/N=C/c3ccnc4ccccc34)=C3CC=CN32)N=C1 (configuration not stated) , give the reported viability at 120 h, 0.1 µM.
104

For the compound shown here, CC1=CC2=NC(N/N=C/c3ccnc4ccccc34)=C3CC=CN3C2C=C1C (configuration not stated) , give the reported viability at 120 h, 0.1 µM.
96.7

For the compound shown here, C1=CC2=NC(N/N=C/c3ccnc4ccccc34)=C3CC=CN3C2C=C1 (configuration not stated) , give the reported viability at 120 h, 0.1 µM.
92.3

For the compound shown here, C1=CC2=NC(N/N=C/c3ccc4ccccc4n3)=C3CC=CN3C2C=C1 (configuration not stated) , give the reported viability at 120 h, 0.1 µM.
87.6

For the compound shown here, COC(=O)C1=CC2=NC(N/N=C/c3ccnc4ccccc34)=C3CC=CN3C2C=C1 (configuration not stated) , give the reported viability at 120 h, 0.1 µM.
72.6

For the compound shown here, COC(=O)C1=CC2=NC(N/N=C/c3ccc4ccccc4n3)=C3CC=CN3C2C=C1 (configuration not stated) , give the reported viability at 120 h, 0.1 µM.
92.6
